# tested target: androgen receiver (Rattus norvegicus)
# Sequence (P15207 whole entry S389L): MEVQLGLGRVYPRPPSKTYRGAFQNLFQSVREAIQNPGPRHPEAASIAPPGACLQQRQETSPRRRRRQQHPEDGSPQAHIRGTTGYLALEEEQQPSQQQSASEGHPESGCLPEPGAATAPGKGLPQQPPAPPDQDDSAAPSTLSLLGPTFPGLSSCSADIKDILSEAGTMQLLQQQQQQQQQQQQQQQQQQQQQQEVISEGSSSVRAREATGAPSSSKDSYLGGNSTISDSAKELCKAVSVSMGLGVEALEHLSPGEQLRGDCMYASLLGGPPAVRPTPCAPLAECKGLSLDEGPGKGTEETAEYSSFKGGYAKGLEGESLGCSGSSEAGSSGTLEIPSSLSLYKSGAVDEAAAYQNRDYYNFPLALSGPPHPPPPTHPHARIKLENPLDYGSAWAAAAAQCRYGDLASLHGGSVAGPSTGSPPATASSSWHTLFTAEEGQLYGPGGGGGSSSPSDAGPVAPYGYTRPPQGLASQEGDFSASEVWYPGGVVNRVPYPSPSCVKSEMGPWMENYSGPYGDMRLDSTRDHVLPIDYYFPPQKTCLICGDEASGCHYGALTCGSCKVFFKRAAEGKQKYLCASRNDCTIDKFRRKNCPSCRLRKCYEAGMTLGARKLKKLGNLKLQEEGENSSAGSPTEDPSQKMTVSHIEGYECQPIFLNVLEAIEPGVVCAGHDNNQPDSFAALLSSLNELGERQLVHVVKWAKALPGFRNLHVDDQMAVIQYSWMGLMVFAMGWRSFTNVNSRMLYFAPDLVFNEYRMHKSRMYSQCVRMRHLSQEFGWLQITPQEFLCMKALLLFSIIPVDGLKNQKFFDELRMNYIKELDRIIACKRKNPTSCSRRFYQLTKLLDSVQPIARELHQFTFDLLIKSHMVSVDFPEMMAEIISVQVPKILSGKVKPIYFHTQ
# experiment notes: Affinity for the androgen receiver (Schilling and Liao method), inhibition of testosterone fixation
# Format: binding
metric: pIC50
Notebook: values listed as pIC50 are -log10 of the concentration (mol/L).

**Query** Form: Entry = C[C@@H]1CC2=CC(=O)CC[C@@H]2[C@H]2CC[C@@]3(C)[C@@H](CC[C@]3(C)O)[C@@H]21 | System = androgen receiver (Rattus norvegicus) | pIC50 = ____
**Result** 8.37

Cited source: patent US6057351A
